- target_or_system: rat Oatp1b2 (Rattus norvegicus)
- method_notes: in vitro
- experimental_conditions: rat, other cell line
- Method: Briefly, HEK-293 cells were grown, at 37°C and 5% CO2, in Dulbecco’s modified Eagle’s medium, which was fortified with 10% fetal bovine serum, 1% minimal essential medium nonessential amino acids, and 1% antibiotic-antimycotic solution. […] Transport studies were performed 48 h after the transfection. […] All the incubation samples were analyzed by liquid chromatography/mass spectrometry. […]
metric: microsomal CLint (µL/min/mg)
Field format: number, assumed µL/min/mg, no unit text.

smiles_representation: O=C(/C=C/c1ccc(O)c(O)c1)O[C@H](Cc1ccc(O)c(O)c1)C(=O)O
target_or_system: rat Oatp1b2 (Rattus norvegicus)
microsomal CLint / µL/min/mg: 0.08

Now, please, on to the next compound.
query: Quick check: microsomal CLint of `O=C(/C=C/c1ccc(O)c(O)c1/C=C/c1ccc(O)c(O)c1)O[C@H](Cc1ccc(O)c(O)c1)C(=O)O` ?
result: 0.38

---

- target_or_system: rat Oatp1b2 (Rattus norvegicus, UniProt Q9QZX8)
- Sequence (Q9QZX8 1-687): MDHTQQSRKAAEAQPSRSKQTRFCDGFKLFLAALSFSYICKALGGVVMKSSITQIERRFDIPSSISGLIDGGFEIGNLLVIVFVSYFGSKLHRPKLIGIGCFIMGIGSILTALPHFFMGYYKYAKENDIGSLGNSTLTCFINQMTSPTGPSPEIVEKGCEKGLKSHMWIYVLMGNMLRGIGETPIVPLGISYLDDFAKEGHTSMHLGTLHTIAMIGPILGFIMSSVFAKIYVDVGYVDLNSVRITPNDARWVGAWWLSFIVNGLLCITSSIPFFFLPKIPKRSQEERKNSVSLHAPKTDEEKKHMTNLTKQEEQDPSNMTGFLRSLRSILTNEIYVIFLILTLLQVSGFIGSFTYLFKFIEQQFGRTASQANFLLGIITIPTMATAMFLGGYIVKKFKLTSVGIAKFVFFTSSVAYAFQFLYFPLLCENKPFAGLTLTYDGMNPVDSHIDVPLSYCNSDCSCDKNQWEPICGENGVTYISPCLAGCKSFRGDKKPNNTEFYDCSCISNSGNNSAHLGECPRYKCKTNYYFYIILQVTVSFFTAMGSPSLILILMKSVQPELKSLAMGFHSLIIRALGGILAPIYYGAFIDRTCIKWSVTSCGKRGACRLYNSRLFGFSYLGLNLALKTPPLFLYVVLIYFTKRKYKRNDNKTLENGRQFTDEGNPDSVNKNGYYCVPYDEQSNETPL
- method_notes: Cellular transport assay, HEK-293 cells expressing rat Oatp1b2
- experimental_conditions: rat hepatic sinusoidal uptake Oatp1b2; 5 min incubation, concentrations in Table 1
Consider the following compounds and their measured K m readings.
Field format: number, assumed µM, no unit text.

Use these answered entries as a reference point.
smiles_representation: O=C(/C=C/c1ccc(O)c(O)c1/C=C/c1ccc(O)c(O)c1)O[C@H](Cc1ccc(O)c(O)c1)C(=O)O
K m (µM): 50.5

smiles_representation: O=C(O)Cc1c(/C=C/C(=O)O[C@H](Cc2ccc(O)c(O)c2)C(=O)O)ccc(O)c1O
K m (µM): 464

smiles_representation: O=C(/C=C/c1ccc(O)c2c1[C@H](C(=O)O)[C@@H](c1ccc(O)c(O)c1)O2)O[C@H](Cc1ccc(O)c(O)c1)C(=O)O
K m (µM): 91.3

query: Quick check: K m of `O=C(/C=C/c1ccc(O)c(O)c1)O[C@H](Cc1ccc(O)c(O)c1)C(=O)O` ?
result: 2049
